Reference source for all entries: patent US20230348473A1

Field: Papp B→A at 2 h, 5 μM. Provide a value for each of the compounds that follow.
- method-summary: Caco-2 bidirectional permeability
- Assay type: in vitro ADME
- measurement-setup: human, basolateral-to-apical, 5 μM, 2 hours, read-out: Caco-2 BA
Note: unit ×10⁻⁶ cm/s is implicit; provide only the numeric part.

Req: Returns the measured Papp B→A at 2 h, 5 μM for the input compound. Input: `CNC(=O)c1ccc(N2CCN(Cc3ccc4c5c(c(=O)[nH]c4c3)CCO5)CC2)c(Cl)n1`
Resp: 21.9

Req: Look up Papp B→A at 2 h, 5 μM for this compound: `CNC(=O)c1ccc(N2CCN(Cc3ccc4c5c(c(=O)[nH]c4c3F)CCO5)CC2)c(F)n1`
Resp: 28.1

Req: Quick one: Papp B→A at 2 h, 5 μM for `CNC(=O)c1ccc(N2CCN(Cc3cc(F)c4c5c(c(=O)[nH]c4c3)COC5)CC2)c(F)n1` ?
Resp: 5.5

Req: Returns the measured Papp B→A at 2 h, 5 μM for the input compound. Input: `CNC(=O)c1ccc(N2CCN(Cc3ccc4c5c(c(=O)[nH]c4c3)CCO5)CC2)c(C)n1`
Resp: 26.2

Req: So what's the measured Papp B→A at 2 h, 5 μM for this one? `CNC(=O)c1ccc(N2CCN(Cc3ccc4c5c(c(=O)[nH]c4c3F)CCC5)CC2)c(F)n1`
Resp: 14.5

----------
- method-summary: HLM metabolic stability, predicted human hepatic clearance
- Assay type: in vitro ADME
- measurement-setup: well-stirred model, 1 μM
Please provide measured HLM Clh for the entries that follow.
Numbers only; they are read as mL/min/kg.

Req: # lookup: HLM Clh of CNC(=O)c1ccc(N2CCN(Cc3ccc4c5c(c(=O)[nH]c4c3)CCO5)CC2)c(Cl)n1 [Comp. Ex. 2]
Resp: 4.2

Req: Given CNC(=O)c1ccc(N2CCN(Cc3cc(F)c4c5c(c(=O)[nH]c4c3)COC5)CC2)c(F)n1 [Comp. Ex. 3] , state its recorded HLM Clh.
Resp: 7.2

Req: Param item = CNC(=O)c1ccc(N2CCN(Cc3ccc4c5c(c(=O)[nH]c4c3F)CCC5)CC2)c(F)n1 [Comp. Ex. 4] ; retrieve measured HLM Clh.
Resp: 11.5

----------
Exercise: state measured HHEP Clh for each of the compounds provided.
- method-summary: hHEP metabolic stability, predicted human hepatic clearance
- Format: in vitro ADME
- measurement-setup: well-stirred model, 1 μM
Report the value in mL/min/kg with no unit label.

Req: What value of HHEP Clh has been reported for the following compound? CNC(=O)c1ccc(N2CCN(Cc3ccc4c5c(c(=O)[nH]c4c3)CCO5)CC2)c(Cl)n1 [Comp. Ex. 2]
Resp: 6.6

Req: Field request: HHEP Clh | item: CNC(=O)c1ccc(N2CCN(Cc3cc(F)c4c5c(c(=O)[nH]c4c3)COC5)CC2)c(F)n1 [Comp. Ex. 3]
Resp: 7.1

Req: # input compound: CNC(=O)c1ccc(N2CCN(Cc3ccc4c5c(c(=O)[nH]c4c3F)CCC5)CC2)c(F)n1 [Comp. Ex. 4] ; wanted: its HHEP Clh
Resp: 14.5

----------
- method-summary: Caco-2 bidirectional permeability
- Assay type: in vitro ADME
- measurement-setup: human, apical-to-basolateral, 5 μM, 2 hours, read-out: Caco-2 AB
Rule: measured Papp A→B at 2 h, 5 μM below 2 ×10⁻⁶ cm/s gets fulfilled; anything equal to or greater than 2 ×10⁻⁶ cm/s gets not fulfilled.

Req: Does the reported Papp A→B at 2 h, 5 μM of `CNC(=O)c1ccc(N2CCN(Cc3ccc4c5c(c(=O)[nH]c4c3)CCO5)CC2)c(C)n1` stay below 2 ×10⁻⁶ cm/s?
Resp: not fulfilled

Req: Lab note: confirm whether the reported Papp A→B at 2 h, 5 μM for this compound is below 2 ×10⁻⁶ cm/s, equality not counting. compound: `CNC(=O)c1ccc(N2CCN(Cc3cc(F)c4c5c(c(=O)[nH]c4c3)COC5)CC2)c(F)n1`
Resp: fulfilled

Req: For `CNC(=O)c1ccc(N2CCN(Cc3ccc4c5c(c(=O)[nH]c4c3F)CCO5)CC2)c(F)n1` , is the recorded Papp A→B at 2 h, 5 μM below the cut-off of 2 ×10⁻⁶ cm/s?
Resp: not fulfilled

Req: Answer whether the compound `CNC(=O)c1ccc(N2CCN(Cc3ccc4c5c(c(=O)[nH]c4c3F)CCC5)CC2)c(F)n1` has Papp A→B at 2 h, 5 μM strictly less than 2 ×10⁻⁶ cm/s
Resp: not fulfilled

Req: Could you please tell me whether Papp A→B at 2 h, 5 μM recorded for `CNC(=O)c1ccc(N2CCN(Cc3ccc4c5c(c(=O)[nH]c4c3)CCO5)CC2)c(Cl)n1` is less than 2 ×10⁻⁶ cm/s?
Resp: not fulfilled

----------
Exercise: for every item that follows, state its recorded efflux ratio at 2 h, 5 μM.
- method-summary: Caco-2 bidirectional permeability
- Type: in vitro ADME
- measurement-setup: human, efflux ratio Papp (B-to-A)/Papp (A-to-B)

Req: Data request, read-out efflux ratio at 2 h, 5 μM, for `CNC(=O)c1ccc(N2CCN(Cc3cc(F)c4c5c(c(=O)[nH]c4c3)COC5)CC2)c(F)n1`
Resp: 7.3

Req: Look up efflux ratio at 2 h, 5 μM for this compound: `CNC(=O)c1ccc(N2CCN(Cc3ccc4c5c(c(=O)[nH]c4c3)CCO5)CC2)c(Cl)n1`
Resp: 9.3

----------
- study-target: PARP2 (Homo sapiens (Human))
- Sequence (Q9UGN5 whole entry): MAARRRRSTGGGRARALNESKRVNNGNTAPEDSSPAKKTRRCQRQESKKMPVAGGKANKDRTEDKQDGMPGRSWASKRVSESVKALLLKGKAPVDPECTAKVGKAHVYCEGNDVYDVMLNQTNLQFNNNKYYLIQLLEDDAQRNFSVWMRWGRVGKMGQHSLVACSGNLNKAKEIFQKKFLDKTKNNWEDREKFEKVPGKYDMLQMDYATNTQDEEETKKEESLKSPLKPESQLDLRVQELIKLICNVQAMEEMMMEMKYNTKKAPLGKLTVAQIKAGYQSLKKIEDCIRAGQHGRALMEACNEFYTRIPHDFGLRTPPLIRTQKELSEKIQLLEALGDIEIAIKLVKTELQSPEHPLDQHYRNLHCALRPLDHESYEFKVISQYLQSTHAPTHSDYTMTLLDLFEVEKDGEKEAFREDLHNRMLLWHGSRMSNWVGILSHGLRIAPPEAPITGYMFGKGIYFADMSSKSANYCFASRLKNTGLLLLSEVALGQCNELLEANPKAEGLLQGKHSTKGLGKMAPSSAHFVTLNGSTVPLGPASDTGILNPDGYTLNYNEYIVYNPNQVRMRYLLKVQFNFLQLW
pIC50: −log10 of the molar value.
metric: pIC50

Req: May I ask what pIC50 has been recorded for `CNC(=O)c1ccc(N2CCN(Cc3ccc4c([nH]c(=O)c5cc(C)nn54)c3F)CC2)c(F)n1` ?
Resp: < 4.00

Req: Fill blank: measured pIC50 of the compound `O=C(NC1CC1)c1ccc(N2CCN(Cc3ccc4c([nH]c(=O)c5ccoc54)c3F)CC2)c(F)n1` is ____.
Resp: < 4.00

Req: Endpoint output: pIC50 of `CNC(=O)c1ccc(N2CCN(Cc3ccc4c5c(c(=O)[nH]c4c3F)CCO5)CC2)cn1` . Value?
Resp: < 4.00

Req: // returns reported pIC50 for input `O=C(NC1CC1)c1ccc(N2CCN(Cc3ccc4c([nH]c(=O)c5ccnn54)c3F)CC2)c(F)n1`
Resp: < 4.00

Req: Given `COCCNC(=O)c1ccc(N2CCN(Cc3ccc4c([nH]c(=O)c5cc(C)nn54)c3F)CC2)c(F)n1` , state its recorded pIC50.
Resp: < 4.00

Req: I have this compound here, `CNC(=O)c1ccc(N2CCN(Cc3ccc4c([nH]c(=O)c5c(C)cnn54)c3F)CC2)c(F)n1` , and I need its recorded pIC50.
Resp: < 4.00

Req: Using the record for `CNC(=O)c1ccc(N2CCN(Cc3ccc4c([nH]c(=O)n5cccc45)c3F)CC2)c(F)n1` , report its pIC50.
Resp: < 4.00
